Data origin, for the record: PubChem BioAssay (NCATS)

PROTOCOL_NOTES: UWB1.289-WTBRCA1 Cancer Cell Toxicity qHTS against the NCATS CANVASS Library (AID 1347354)
MEASUREMENT_PARAMETERS: UWB1.289-WTBRCA1 viability, CellTiter-Glo luminescence, 72 h; series mostly up to 38.3 µM
Results filed as inconclusive are left out. The source made the active and inactive calls. Calls follow the shape of the dose curve; as a rule, active = well fitted cell-killing curve with a large enough effect; inconclusive = small, poorly fitted or top-dose-only effect, or effect the other way; inactive = flat fitted curve, though single readings scatter.
Return exactly one item of true = active, false = inactive

COMPOUND: CC1C(=O)C23CCC1C[C@]21O[C@@H]2C(C)(C)C=CC(=O)[C@@]23COC1=O (stereo partly drawn)
CLASS_ASSIGNMENT: false

Please indicate how the test categorized O=C1C[C@@H](c2ccc(O)c(-c3c(O)cc(O)c4c3O[C@H](c3ccc(O)cc3)CC4=O)c2)Oc2cc(O)cc(O)c21 .
false

Per the records of this test, what outcome belongs to COc1c(O)cc2oc(-c3ccccc3)cc(=O)c2c1O ?
false

How was C=C1/C=C\C(CCC)=C\c2csc(n2)C(C)NC(=O)C[C@@]2(CC(=O)O)CCC(=C)[C@H](C1)S2 (stereo partly drawn) classified in this test?
false

Each compound tested received a call. Report the one for CC(C)=CCC/C(C)=C/Cc1c(O)c(CC=C(C)C)c(O)c2c(=O)c3cc(O)ccc3oc12 .
true

Kindly provide the recorded test outcome for the following compound: C=CC(=C)CC[C@]1(C)[C@H]2C[C@H](OC(=O)C(C)CC)C=C3[C@H](OC(C)=O)O[C@H](OC(C)=O)[C@@]32[C@H](OC)C[C@@H]1C (stereo partly drawn)
true

Status in this test for C=C[C@]1(C)CC[C@@H]([C@H](C)C(=O)OCC)O1 ?
false

Identify the outcome logged in this assay for the compound shown: C=C(C)[C@@H]1CC[C@]2(C)CC[C@]3(C)[C@H](CC[C@@H]4[C@@]5(C)CC[C@H](O)C(C)(C)[C@@H]5CC[C@]43C)[C@@H]12
false
